Task for the reader: assign each of the following compounds its reported inhibition (INH).
test system: MCF7; assay: Antiproliferative activity against human MCF7 cells expressing estrogen receptor assessed as cell growth inhibition 50 uM after 72 hrs by WST-1 assay relative to control; format: functional
Respond with the bare value in %.

Lookup: inhibition (INH) / MCF7 / COc1cc(OC)c(/C=C/C(C)=C/C=C/C(C)=C/C(=O)O)c(OC)c1
-53

Now the compound CC(/C=C/c1cc(F)c(F)cc1F)=C\C=C\C(C)=C\C(=O)O
10

Same read-out for CC(/C=C/C=C(\C)c1ccc2ccc3cccc4ccc1c2c34)=C\C(=O)O ?
8

Request: CC(/C=C/c1ccc2ccccc2c1)=C\C=C\C(C)=C\C(=O)O
-25

What about CC1=C(/C=C/C(C)=C/C=C/C(C)=C/C(=O)O)C(C)(C)CCC1 ?
3.1

Try this compound too: CC(/C=C/c1ccc2ccc3cccc4ccc1c2c34)=C\C=C\C(C)=C\C(=O)O
4

Ok, now CC(/C=C/C=C(\C)c1ccc2cc3ccccc3cc2c1)=C\C(=O)O
15

Same question, COc1ccc(/C=C/C(C)=C/C=C/C(C)=C/C(=O)O)cc1OC this time
-30

Then CC(/C=C/c1ccc(N(C)C)cc1)=C\C=C\C(C)=C\C(=O)O ?
5

Quick one: CC(/C=C/c1ccc(C(F)(F)F)cc1C(F)(F)F)=C\C=C\C(C)=C\C(=O)O
6

Likewise for COc1ccc2cc(/C(C)=C/C=C/C(C)=C/C(=O)O)ccc2c1 ?
-32
